# experiment: Inhibition of HCV 1b NS5B RNA dependent RNA polymerase by scintillation proximity assay
# Design: species or system Hepacivirus hominis
pIC50: −log10 of the molar value.
The threshold is inclusive: pIC50 of exactly 7 counts as yes (1); values below receive no (0).

compound | assigned_class
Cn1c(-c2ccccn2)c(C2CCCCC2)c2ccc(C(=O)NC3(C(=O)Nc4ccc(-c5cnc(N)nc5)cc4)CCC3)cc21 | no (0)
Cn1c(-c2ccccn2)c(C2CCCCC2)c2ccc(C(=O)N[C@]3(C(=O)Nc4ccc(/C=C/C(=O)O)cc4)CCCNC3)cc21 | yes (1)
Cn1c(-c2ccccn2)c(C2CCCCC2)c2ccc(C(=O)NC3(C(=O)Nc4ccc(/C=C/C(=O)O)cc4)CCC3)cc21 | yes (1)
CC(=O)N1CC[C@@](NC(=O)c2ccc3c(C4CCCCC4)c(-c4ccccn4)n(C)c3c2)(C(=O)Nc2ccc(/C=C/C(=O)O)cc2)C1 | yes (1)
CC(=O)N1CCCC(NC(=O)c2ccc3c(C4CCCCC4)c(-c4ccccn4)n(C)c3c2)(C(=O)Nc2ccc(/C=C/C(=O)O)cc2)C1 (racemic) | no (0)
Cn1c(-c2ccccn2)c(C2CCCCC2)c2ccc(C(=O)NC3(C(=O)Nc4ccc(/C=C/C(=O)O)cc4)CCNCC3)cc21 | yes (1)

###

Listed compounds paired with reported Ratio
# experiment: Selectivity ratio for polio virus RNA-dependent RNA polymerase to HCV 1b NS5B RNA dependent RNA polymerase

mol | Ratio
Cn1c(-c2ccccn2)c(C2CCCCC2)c2ccc(C(=O)NC(C)(C)C(=O)Nc3ccc(-c4nc(C(=O)O)cs4)cc3)cc21 | > 150
Cn1c(-c2ccccn2)c(C2CCCCC2)c2ccc(C(=O)NC3(C(=O)Nc4ccc(/C=C/C(=O)O)cc4)CCC3)cc21 | > 150
Cn1c(-c2ccccn2)c(C2CCCCC2)c2ccc(C(=O)NC(C)(C)C(=O)Nc3ccc(-c4nc(C(N)=O)cs4)cc3)cc21 | > 150

###

# experiment: Half life in human liver microsomes at 10 uM
# reported_conditions: liver microsomes
Threshold-based label: half-life at 10 µM under 1 h gives yes (1), half-life at 10 µM not under 1 h gives no (0).

mol | assigned_class
Cn1c(-c2ccccn2)c(C2CCCCC2)c2ccc(C(=O)N[C@@]3(C(=O)Nc4ccc(/C=C/C(=O)O)cc4)CCNC3)cc21 | no (0)
Cn1c(C(=O)O)cc2cc(NC(=O)[C@]3(NC(=O)c4ccc5c(C6CCCCC6)c(-c6ccccn6)n(C)c5c4)CCCNC3)ccc21 | yes (1)
Cc1c(C(=O)O)sc2ccc(NC(=O)C3(NC(=O)c4ccc5c(C6CCCCC6)c(-c6ccccn6)n(C)c5c4)CCC3)cc12 | no (0)
Cn1c(-c2ccccn2)c(C2CCCCC2)c2ccc(C(=O)NC(C)(C)C(=O)Nc3ccc4sc(C(=O)O)cc4c3)cc21 | yes (1)
Cn1c(-c2ccccn2)c(C2CCCCC2)c2ccc(C(=O)N[C@@]3(C(=O)Nc4ccc(/C=C/C(=O)O)cc4)CCCNC3)cc21 | no (0)
Cn1c(-c2ccccn2)c(C2CCCCC2)c2ccc(C(=O)NC(C)(C)C(=O)Nc3ccc(-c4ccc(C(N)=O)o4)cc3)cc21 | yes (1)
Cc1c(C(=O)O)sc2ccc(NC(=O)C3(NC(=O)c4ccc5c(C6CCCCC6)c(-c6ccccn6)n(C)c5c4)CCN(C)CC3)cc12 | no (0)
Cn1c(-c2ccccn2)c(C2CCCCC2)c2ccc(C(=O)NC(C)(C)C(=O)Nc3ccc(-c4nc(C(N)=O)cs4)cc3)cc21 | yes (1)
CN1CCC(NC(=O)c2ccc3c(C4CCCCC4)c(-c4ccccn4)n(C)c3c2)(C(=O)Nc2ccc(/C=C/C(=O)O)cc2)CC1 | no (0)
Cn1c(C(N)=O)cc2cc(NC(=O)C(C)(C)NC(=O)c3ccc4c(C5CCCCC5)c(-c5ccccn5)n(C)c4c3)ccc21 | yes (1)
Cc1c(C(N)=O)sc2ccc(NC(=O)C3(NC(=O)c4ccc5c(C6CCCCC6)c(-c6ccccn6)n(C)c5c4)CCC3)cc12 | no (0)
